# credit: ChEMBL document CHEMBL3352586

# Tested on: Liver microsome
# assay remarks: Intrinsic clearance in human liver microsomes at 1 uM after 60 mins by LC-MS analysis
# Type: ADME
# reported conditions: 1 h
readout name: CLint (µL/min/mg)

Cc1ccnc(NC(=O)c2ccccc2C)c1 : 129

(A) Cc1c(F)cccc1C(=O)Nc1cc(Cl)ccn1
(B) Cc1ccccc1C(=O)Nc1cc(Cl)ccn1
Compare reported CLint values for A and B . Which is lower? Lab note: record the label of whichever item you select.
B

* * *

# IC50 per record follows
# System: L6
# assay remarks: Cytotoxicity against rat L6 cells after 70 hrs by alamar blue assay
# Assay type: cell-based
# reported conditions: L6, 70 h
Kindly provide the numeric value in µM only, without the unit symbol.

Name the recorded IC50 for Cc1ccc(C(=O)Nc2ccccn2)c(C)c1 .
283

Name the recorded IC50 for Cc1c(C(=O)Nc2ccccn2)ccc(F)c1F .
308

Name the recorded IC50 for Cc1cc(Br)ccc1C(=O)Nc1ccccn1 .
193

Name the recorded IC50 for Cc1ccccc1C(=O)Nc1ccccn1 .
156

Name the recorded IC50 for Cc1ccnc(NC(=O)c2ccccc2C)c1 .
146

* * *

# assay remarks: Selectivity index, ratio of IC50 for HEK293 cells to IC50 for Trypanosoma brucei brucei 427
# Type: toxicity, cell-based
# reported conditions: human, read-out: Ratio IC50
readout name: selectivity ratio
Reply briefly: the number, and no unit.

O=C(Nc1ccccn1)c1cccc(F)c1 : 11

Name the recorded selectivity ratio for Cc1c(F)cccc1C(=O)Nc1ccccn1 .
94

Name the recorded selectivity ratio for CCc1ccccc1C(=O)Nc1ccccn1 .
30

Name the recorded selectivity ratio for Cc1ccnc(NC(=O)c2ccc(F)c(F)c2C)c1 .
93

Name the recorded selectivity ratio for Cc1c(C(=O)Nc2cc(F)ccn2)ccc(F)c1F .
450

Name the recorded selectivity ratio for Cc1c(F)cccc1C(=O)Nc1cc(F)ccn1 .
851

Name the recorded selectivity ratio for Cc1ccc(C(=O)Nc2ccccn2)c(C)c1 .
85

Name the recorded selectivity ratio for Cc1cc(Br)ccc1C(=O)Nc1ccccn1 .
60

Name the recorded selectivity ratio for COc1ccc(NC(=O)c2ccc(F)cc2C)nc1 .
32

* * *

# assay remarks: Kinetic solubility of the compound at 10 mg/ml at pH 2 by nephelometry
# Type: physicochemical
# reported conditions: buffer, read-out: Kinetic_solubility
readout name: solubility kinetic (µg/mL)

Cc1ccccc1C(=O)Nc1ccc(C#N)cn1 : 6.3

(I) Cc1ccccc1C(=O)Nc1ncccn1
(II) Cc1c(F)cccc1C(=O)Nc1cc(Cl)ccn1
(III) Cc1c(C(=O)Nc2ccccn2)ccc(F)c1F
(IV) Cc1ccccc1C(=O)Nc1cc(C#Cc2ccccc2)ccn1
Please order the records by their reported solubility kinetic, lowest number first. # the answer lists labels in the order requested
IV, I, II, III
(IV: 1.6 µg/mL, I: 6.3 µg/mL, II: 12.5 µg/mL, III: 50 µg/mL)

* * *

# assay remarks: Selectivity index, ratio of IC50 for rat L6 cells to IC50 for bloodstream form of Trypanosoma brucei rhodesiense STIB 900
# Type: toxicity, cell-based
# reported conditions: read-out: Ratio IC50
readout name: selectivity ratio

Name the recorded selectivity ratio for Cc1cc(Br)ccc1C(=O)Nc1ccccn1 .
> 4000

* * *

# Activity per record follows
# Test system: Trypanosoma brucei brucei
# assay remarks: Trypanocidal activity against Trypanosoma brucei brucei after 24 hrs by hemocytometry relative to control
# Format: functional
Kindly provide the numeric value in % only, without the unit symbol.

Recorded Activity, per entry:
N=C(N)c1ccc(OCCCCCOc2ccc(C(=N)N)cc2)cc1 : 58.1
Cc1c(F)cccc1C(=O)Nc1cc(Cl)ccn1 : 64.23
COc1ccc(C[C@H](N)C(=O)N[C@H]2[C@@H](O)[C@H](n3cnc4c(N(C)C)ncnc43)O[C@@H]2CO)cc1 : 100

Please find the next molecule below.
What Activity appears in the records for this molecule with Trypanosoma brucei brucei? Cc1c(C(=O)Nc2ccccn2)ccc(F)c1F
92

* * *

# assay remarks: Plasma protein binding in human […] by chromatographic method
# Format: ADME, cell-free
# reported conditions: read-out: PPB (converted)
readout name: fraction unbound

Recorded fraction unbound, per entry:
Cc1ccccc1C(=O)Nc1cccc(F)n1 : 0.33
Cc1c(C(=O)Nc2ccccn2)ccc(F)c1F : 0.361
Cc1ccccc1C(=O)Nc1ccc(F)cn1 : 0.44
Cc1c(F)cccc1C(=O)Nc1cc(Cl)ccn1 : 0.283
Cc1c(F)cccc1C(=O)Nc1ccccn1 : 0.321

(1) Cc1ccnc(NC(=O)c2ccccc2C)c1
(2) Cc1ccccc1C(=O)Nc1ccc(C#N)cn1
1 or 2 : whose fraction unbound is greater? Lab note: record the label of whichever item you select.
1

* * *

# selectivity ratio per record follows
# assay remarks: Selectivity index, ratio of IC50 for HEK293 cells to IC50 for Trypanosoma brucei brucei 427
# Assay type: toxicity, cell-based
# reported conditions: human, read-out: Ratio IC50
Reply briefly: the number, and no unit.

Recorded selectivity ratio, per entry:
Cc1c(F)cccc1C(=O)Nc1cc(Cl)ccn1 : 177
Cc1c(Cl)cccc1C(=O)Nc1ccccn1 : 132
Cc1cc(F)ccc1C(=O)Nc1ccccn1 : 44
Cc1ccccc1C(=O)Nc1cc(F)ccn1 : 168
Cc1cc(Cl)ccc1C(=O)Nc1ccccn1 : 76

Name the recorded selectivity ratio for COc1ccc(NC(=O)c2cccc(F)c2C)nc1 .
4

Name the recorded selectivity ratio for Cc1ccccc1C(=O)Nc1cc(-c2ccccc2)ccn1 .
31

* * *

# selectivity ratio per record follows
# assay remarks: Selectivity index, ratio of IC50 for HEK293 cells to IC50 for Trypanosoma brucei brucei 427
# Type: toxicity, cell-based
# reported conditions: human, read-out: Ratio IC50
Reply briefly: the number, and no unit.

Cc1c(C(=O)Nc2cc(Cl)ccn2)ccc(F)c1F : 160
Cc1ccccc1C(=O)Nc1ccccn1 : 27.5

Name the recorded selectivity ratio for O=C(Nc1ccccn1)c1ccccc1 .
9.2

Name the recorded selectivity ratio for Cc1c(C(=O)Nc2ccccn2)ccc(F)c1F .
205

* * *

# assay remarks: Partition coefficient, log D of the compound at pH 7.4 by HPLC method
# Format: physicochemical
# reported conditions: octanol/water
readout name: logD

(a) Cc1ccccc1C(=O)Nc1cc(Cl)ccn1
(b) Cc1c(F)cccc1C(=O)Nc1cc(Cl)ccn1
Compare reported logD values for a and b . Which is lower? Lab note: record the label of whichever item you select.
b

(I) Cc1ccccc1C(=O)Nc1cc(C#Cc2ccccc2)ccn1
(II) Cc1c(C(=O)Nc2ccccn2)ccc(F)c1F
I or II : whose logD is greater? Lab note: record the label of whichever item you select.
I
(I: 4.7, II: 2.8)

(A) Cc1ccccc1C(=O)Nc1ncccn1
(B) Cc1ccccc1C(=O)Nc1ccc(F)cn1
A or B : whose logD is greater? Lab note: record the label of whichever item you select.
A
(A: 3.9, B: 2.7)

(A) Cc1ccccc1C(=O)Nc1ccc(C#N)cn1
(B) COc1ccc(NC(=O)c2ccccc2C)nc1
A or B : whose logD is greater? Lab note: record the label of whichever item you select.
A

* * *

# assay remarks: Kinetic solubility of the compound at 10 mg/ml at pH 2 by nephelometry
# Type: physicochemical
# reported conditions: buffer, read-out: Kinetic_solubility
readout name: solubility kinetic (µg/mL)

Recorded solubility kinetic, per entry:
Cc1ccccc1C(=O)Nc1ccc(F)cn1 : 25
Cc1ccccc1C(=O)Nc1cc(C#N)ccn1 : 50

(1) Cc1c(F)cccc1C(=O)Nc1ccccn1
(2) Cc1ccccc1C(=O)Nc1cc(Cl)ccn1
Compare reported solubility kinetic values for 1 and 2 . Which is lower? Lab note: record the label of whichever item you select.
2
(2: 25 µg/mL, 1: 50 µg/mL)

* * *

# assay remarks: Kinetic solubility of the compound at 10 mg/ml at pH 6.5 by nephelometry
# Type: physicochemical
# reported conditions: buffer, read-out: Kinetic_solubility
# solubility kinetic per record follows

Recorded solubility kinetic, per entry:
Cc1ccccc1C(=O)Nc1cc(C#Cc2ccccc2)ccn1 : < 1.6 µg/mL
Cc1ccccc1C(=O)Nc1cccc(F)n1 : > 100 µg/mL
Cc1cc(Br)ccc1C(=O)Nc1ccccn1 : > 100 µg/mL

Name the recorded solubility kinetic for Cc1ccccc1C(=O)Nc1cc(C#N)ccn1 .
25 µg/mL

* * *

# System: Liver microsome
# assay remarks: Intrinsic clearance in human liver microsomes at 1 uM after 60 mins by LC-MS analysis
# Format: ADME
# reported conditions: 1 h
readout name: CLint (µL/min/mg)

Recorded CLint, per entry:
Cc1c(F)cccc1C(=O)Nc1ccccn1 : 58
Cc1ccnc(NC(=O)c2cccc(F)c2C)c1 : 237
Cc1ccccc1C(=O)Nc1cc(C#Cc2ccccc2)ccn1 : 27
Cc1cc(Br)ccc1C(=O)Nc1ccccn1 : 97
Cc1ccccc1C(=O)Nc1cc(C#N)ccn1 : 82
COc1ccc(NC(=O)c2ccccc2C)nc1 : 23
Cc1ccccc1C(=O)Nc1cccc(F)n1 : 191

(I) Cc1c(C(=O)Nc2ccccn2)ccc(F)c1F
(II) Cc1ccccc1C(=O)Nc1ccc(F)cn1
I or II : whose CLint is greater? Lab note: record the label of whichever item you select.
I
(I: 154 µL/min/mg, II: 43 µL/min/mg)
